Assay: Toxicity in C57BL/6 mouse model xenografted with […] cells assessed as obvious damage in liver at 10 mg/kg, ip administered daily for 10 days by H and E staining based analysis
Assay type: organism-based
Conditions: in vivo, 240 h, time 10 day

COMPOUND: COc1cc2c(cc1OC)-c1cc3ccc(OC)c(OC)c3c[n+]1CC2.[Cl-] [PALMATINE CHLORIDE]
Activity: Non-toxic

COMPOUND: COc1cc2c(cc1OC)-c1cc3ccc(OC)c(OCCCCCN)c3c[n+]1CC2.[Cl-]
Activity: Non-toxic

COMPOUND: COc1cc2c(cc1OC)-c1cc3ccc(OC)c(OCCCN)c3c[n+]1CC2.[Cl-]
Activity: Non-toxic

COMPOUND: COc1cc2c(cc1OC)-c1cc3ccc(OC)c(OCCN)c3c[n+]1CC2.[Cl-]
Activity: Non-toxic

The origin of these recorded values is ChEMBL document CHEMBL6092191.
